Test system: MDA-MB-435
Possible outcomes: 1 (active), -1 (inactive)

> print(dat)
                                smiles.code  class.label
1  COc1cc(-c2nc3sc4c(c3c(=O)[nH]2)CCCCCC4)cc(OC)c1OC            1
2             Cc1c(C)[n+](=O)c(C)c(C)n1[O-]           -1
3  O=C(Nc1ccc(Cl)cc1)c1cc(-c2ccc(Cl)cc2)c2sc(=O)[nH]c2n1           -1
4  C#CC(F)(F)[C@]1(O)CC[C@H]2[C@@H]3CCC4=CC(=O)CCC4=C3[C@@H](c3ccc(C(C)=O)cc3)C[C@@]21C           -1

---

Tested on: NCI-H23 lung
Experiment: NCI tumour cell line growth inhibition, 48 h
READOUT_NAME: TGI

> print(dat)
                                   compound    result
1  O=C1Nc2cc([N+](=O)[O-])ccc2NC1/C(=N\Nc1ccccc1)C(O)c1cccc([N+](=O)[O-])c1 (stereo not drawn)  > 100 µM
2  C=CCNC(=O)NC1=CSC2=NC(=O)C3(NN12)c1ccccc1-c1ccccc13   > 10 µM
3       Cc1cn(CC2=NCC(C)(C)N2)c(=O)[nH]c1=O  > 100 µM
4  COc1cc(CC2c3cc(OC)c(OC)cc3CCN2C)c(Oc2cc3c(cc2OC)-c2c(O)c(OC)cc4c2C(C3)N(C)CC4)cc1OC (stereo not drawn)   42.8 µM
5  C/C(=N\NC(N)=S)C(CN(CC(C)C)CC(C)C)C(=O)Nc1ccc(C)cc1C (stereo not drawn)  > 100 µM
6  Cc1nc2ccc(S(=O)(=O)O)cc2c(=O)n1-c1ccc(C(=O)NN2C(=O)C(Cl)C2c2ccccc2O)cc1 (stereo not drawn)  > 100 µM
7  C=C1C(=O)OCC2C(C(=O)O)=CC3C(C)C(C)=CC123 (stereo not drawn)   25.7 µM
8             Cc1c(C)[n+](=O)c(C)c(C)n1[O-]  > 100 µM

---

Test system: CCRF-CEM leukemia
Test: NCI tumour cell line growth inhibition, 48 h
Where a SMILES comes first, the peptide text is derived from it. The star is where a group is joined. Cbz = O=C(OCc1ccccc1)*; OBn = c1ccc(CO*)cc1
READOUT_NAME: TGI (µM)

MOLECULE	TESTED_SYSTEM	RELATION_OPERATOR	QUANTITATIVE_RESULT
CC(C)c1ccc(/C=C2\CSCC3=C2NC(=S)NC3c2ccc(C(C)C)cc2)cc1 (configuration not stated)	CCRF-CEM leukemia	>	100
O=C(Nc1ccccc1O)c1ccc(Oc2cccc(C(=O)Nc3ccccc3O)c2)cc1	CCRF-CEM leukemia	=	9.15
COc1cccc(/C=C/c2cnc3ccccc3n2)c1OC	CCRF-CEM leukemia	>	100
CCCCOP1(=O)C=C(C)C(=C(Cl)Cl)C(C)=C1 (configuration not stated)	CCRF-CEM leukemia	>	41.4
O=C(C(=O)N1CC2C=CC1CC2)c1c[nH]c2ccccc12 (configuration not stated)	CCRF-CEM leukemia	>	100
CSc1ccc2c3c(n(C[C@H](O)CO)c(=O)c2c1)-c1ccccc1C3=O	CCRF-CEM leukemia	=	7.1
Cc1ccc2c(O)c(O)cc(NC(C)CCCN)c2n1 (configuration not stated)	CCRF-CEM leukemia	=	16.8
O=C1COc2ccc([N+](=O)[O-])cc2C(=O)C1	CCRF-CEM leukemia	>	10
C=C(c1ccc(C(=O)N(C)c2ccccc2N)cc1)C(C)N1C(=O)[C@H]2CCCN2C(=O)c2ccccc21 (some centres not stated)	CCRF-CEM leukemia	>	100
Cc1cc(S(=O)(=O)O)c(NC(=O)C(=O)C2C=CCS2(=O)=O)cc1Cl (configuration not stated)	CCRF-CEM leukemia	>	100
COC(=O)C(Cc1ccc(O)cc1)NC(=O)C(CC(=O)OCc1ccccc1)NC(=O)OCc1ccccc1 (configuration not stated) (Cbz-Asp(OBn)-Tyr-OMe; configuration not given here)	CCRF-CEM leukemia	>	100
Cc1cc(C)c(O)c(CN(C)Cc2cc(Cl)cc(Cl)c2O)c1	CCRF-CEM leukemia	=	14.8
Cc1c2c[n+](C(C)C)ccc2c(C)c2c1[nH]c1ccccc12	CCRF-CEM leukemia	=	38.7
COc1cc2c[n+](C)c3c4ccccc4ccc3c2cc1OC (tested in a mixture with another compound)	CCRF-CEM leukemia	>	70.6
COc1ccc(/C(=N/Nc2ccccc2)C(c2ccc(OC)cc2)C2OC(=O)c3ccccc32)cc1 (configuration not stated)	CCRF-CEM leukemia	>	100
COC(=O)c1cc(C#N)[nH]c1-c1ccc(C)s1	CCRF-CEM leukemia	>	100
C=C1C(=O)OCC2C(C(=O)O)=CC3C(C)C(C)=CC123 (configuration not stated)	CCRF-CEM leukemia	=	42
CC(=O)O/N=C1/C(c2c(O)[nH]c3cc(Br)ccc23)=Nc2ccccc21	CCRF-CEM leukemia	=	5.37
Cc1ccc(N2CCc3c(C)c(C#N)c4nc5ccccc5n4c32)cc1	CCRF-CEM leukemia	>	100
CCCCCCCCCCCCCCCCCCNc1ccn(C2OC(COP(=O)(O)OCC3OC(n4cc(C)c(=O)[nH]c4=O)CC3N=[N+]=[N-])C(O)C2O)c(=O)n1 (configuration not stated)	CCRF-CEM leukemia	=	48.7
COc1ccc(Cl)cc1NC(=O)C(Br)C(Br)C(=O)O (configuration not stated)	CCRF-CEM leukemia	>	100
CN(C)CCNC(=O)c1cccc2nc3c(nc12)-c1ccccc1C3=O	CCRF-CEM leukemia	=	17.4

---

Tested on: CAKI-1 renal
Assay: NCI tumour cell line growth inhibition, 48 h
Each entry below carries its reported TGI.
READOUT_NAME: TGI

> print(dat)
                                   molecule     result
1  Cc1cc(Nc2ncnc3ccc(NC4=NC(C)(C)CO4)cc23)ccc1Oc1ccn2ncnc2c1  > 61.1 µM
2  COc1ccccc1NC(=O)C1=C(C)NC(C)=C(C(=O)Nc2ccccc2OC)C1c1ccc(C)cc1   > 100 µM
3  CC(=O)OC1(C)C(=O)OC1(C)C(C)=O (stereo not given)   > 100 µM
4  O=c1c(C=Nc2ccc([N+](=O)[O-])cc2)c(O)n(-c2ccccc2)c(=O)n1-c1ccccc1   > 100 µM
5  COc1cccc2c1C(=O)c1c(O)c3c(c(O)c1C2=O)C[C@@](O)(C(=O)CO)C[C@@H]3OC1C[C@H](N)[C@H](O)[C@H](C)O1 (stereo not given in full)    4.18 µM

---

Tested on: SK-OV-3 ovarian
Experiment: NCI tumour cell line growth inhibition, 48 h; in the data active means GI50 below about 0.43 µM; inactive means the rest
Labels: t (active), f (inactive)

COMPOUND	CLASS_LABEL
O=C(O)c1cc2cc(OCc3ccccc3)c(OCc3ccccc3)cc2[nH]1	f
CO[C@@H]1CC(=O)C2(CC(=O)O[C@@H]2/C=C(\C)CCC=C(C)C)C[C@@H]1O (stereo not given in full)	f
COc1ccc(Cl)cc1NC(=O)C(Br)C(Br)C(=O)O (stereo not given)	f
COc1cc(-c2nc3sc4c(c3c(=O)[nH]2)CCCCCC4)cc(OC)c1OC	f
COc1cccc2c1C(=O)c1c(O)c3c(c(O)c1C2=O)C[C@@](O)(C(=O)CO)C[C@@H]3OC1C[C@H](N)[C@H](O)[C@H](C)O1 (stereo not given in full)	t
Cc1ccc(SC2=CC(=O)c3nc4ccccc4c4ccnc2c34)cc1	f
C=CCC(N[C@H](CO)c1ccccc1)c1cn(C(=O)OCC)c2ccccc12 (stereo not given in full)	f
COC(=O)[C@]12CC[C@@H](C)[C@H](C)[C@@H]1C1=CC[C@@H]3[C@@]4(C)C=C(O)C(=O)[C@@]5(C)COC(=C54)C[C@@]3(C)[C@]1(C)CC2	f
C#CC(F)(F)[C@]1(O)CC[C@H]2[C@@H]3CCC4=CC(=O)CCC4=C3[C@@H](c3ccc(C(C)=O)cc3)C[C@@]21C	f
O=C(N/N=C/c1ccc([N+](=O)[O-])cc1)c1ccc2nc(-c3ccc(Cl)cc3)[nH]c2c1	f
COc1ccc2nc3cc(Cl)ccc3c(NCCCNCCC(C)O)c2c1 (stereo not given)	f
CO[C@@H]1/C=C(C)/C=C/[C@@H](C)/C=C(\C)C(=O)OC(/C(C)=C/C=C(\C)CNC(=O)[C@H](CO)NC=O)[C@@H](C)/C=C/C=C/[C@H](OC)CC/C=C(C)/C=C/C1 (stereo not given in full)	t
Cc1cc(C)c(O)c(CN(C)Cc2cc(Cl)cc(Cl)c2O)c1	f
N#CC1=C(N)NC(=O)NC12Nc1ccccc1S2 (stereo not given)	f
Cc1cc(Cc2cc(C)cc(C(C)(C)C)c2O)c(O)c(C(C)(C)C)c1	f
O=C(Cc1cccc(OC(F)(F)F)c1)Nc1ccc(CCCCc2nnc(NC(=O)Cc3ccccn3)s2)nn1	f
C=C1C(=O)O[C@H]2[C@H]1CC/C(COC(=O)NCCc1c[nH]c3ccc(OC)cc13)=C\CC[C@@]1(C)O[C@@H]21	f
C=C(c1ccc(C(=O)N(C)c2ccccc2N)cc1)C(C)N1C(=O)[C@H]2CCCN2C(=O)c2ccccc21 (stereo not given in full)	f
CCN1c2ccccc2C(Cl)(c2ccc(N(C)C)cc2)c2ccccc21	f
CC(=O)OCC1OC(OC2CC3C(C)(C)C(O)CC[C@]3(C)C3CCC45CC4(CC[C@H]5C(C)CC(O)C4OC4(C)C)[C@]23C)C(O)C(O)C1O (stereo not given in full)	f
C=C1C(=O)O[C@H]2[C@H]1CC/C(COC(=O)CSCC(=O)OC/C1=C/CC[C@@]3(C)O[C@H]3[C@H]3OC(=O)C(=C)[C@@H]3CC1)=C\CC[C@@]1(C)O[C@@H]21	f
NC1=NC(c2ccc(Cl)cc2)C2=C(N1)/C(=C/c1ccc(Cl)cc1)CCC2 (stereo not given)	f
COc1ccc2c(c1)C(=O)/C(=C/c1ncc([N+](=O)[O-])n1C)O2	f
COc1ccc(C(=O)c2cc3c(OC)c(OC)c(OC)cc3[nH]2)cc1	f
Cn1cc(-c2cnc3ccc4ccc(CS(=O)(=O)NCc5ccccn5)cc4c(=O)c3c2)cn1	f
